These measurements were taken from patent US6545032B1.

Biological target: mu opiate receptor (Rattus norvegicus)
Construct: from tissue; host or cells: rat brain membranes/homogenate
Test: Inhibition of [3H]DAMGO binding to the mu opiate receptor in rat brain homogenates
Conditions: percent inhibition of DAMGO binding; 0.08 mg of compound per milliliter, 7 nM 3H-labeled DAMGO, rat brain membranes
From the text: The previously prepared [3,5,7]-1H-imidazo[1,5-a]-imidazol-2(3H)-one library of individual compounds was screened for the ability to inhibit the binding of [^3H] [D-Ala^2,MePhe^4,Gly^5-ol]enkephalin (DAMGO) that is known to bind specifically to the mu opiate receptor present in rat brain homogenates following literature procedures. [Dooley et al., Science, 266:2019(1994); U.S. Pat. No. 5,763,193.] […]
PARAMETER: % Inhibition (%)
One number for each entry, in %.

Completed entries (count: 2):
>>> observed_measurement("CCCc1nc(C(C)C)c2n1C(C(C)C)C(=O)N2 (racemic)")
46
>>> observed_measurement("Cc1nc(C)n2c1NC(=O)C2C(C)C (stereo not drawn) [Pool 35]")
53

Entry CCCC1C(=O)Nc2c(C(C)C)nc(C)n21 (stereo not drawn) [Pool 12] ; % Inhibition = 28

###

target: kappa opiate receptor (Cavia porcellus); construct: guinea pig cortices and cerebella were homogenized in 40 mL of Buffer A; from tissue; host or cells: guinea pig cortices and cerebella, crude membrane suspension; assay: Inhibition of tritiated U69,593 binding to the kappa opiate receptor in guinea pig brain homogenates; conditions: inhibition of [3H]U69,593 binding; 3 nm tritiated U69,593, guinea pig brain membranes
Sequence (P41144 whole entry): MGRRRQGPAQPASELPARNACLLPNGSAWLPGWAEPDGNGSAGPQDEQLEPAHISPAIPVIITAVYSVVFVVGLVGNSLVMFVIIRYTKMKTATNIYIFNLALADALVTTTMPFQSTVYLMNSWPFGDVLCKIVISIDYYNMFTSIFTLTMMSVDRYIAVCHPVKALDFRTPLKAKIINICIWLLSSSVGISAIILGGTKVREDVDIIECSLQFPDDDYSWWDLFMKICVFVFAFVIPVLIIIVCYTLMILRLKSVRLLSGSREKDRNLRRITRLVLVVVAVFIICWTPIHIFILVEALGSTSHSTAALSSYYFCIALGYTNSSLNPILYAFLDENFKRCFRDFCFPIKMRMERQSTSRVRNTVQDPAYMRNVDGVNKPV
Would you kindly list % Inhibition for each of these compounds?
Answers are plain numbers, in %.

>>> observed_measurement("CC(C)c1nc(Cc2ccc(Br)cc2)n2c1NC(=O)C2C(C)C (racemic)")
26.342

// each listed compound needs a value for % Inhibition
1. CCOc1ccc(Cc2nc(C(C)C)c3n2C(C(C)C)C(=O)N3)cc1 (racemic)
2. Cc1nc(Cc2ccccc2)c2n1C(C(C)C)C(=O)N2 (racemic) [Pool 63]
3. CCCC1C(=O)Nc2c(C(C)C)nc(C)n21 (centres unmarked) [Pool 28]
4. CC(C)c1nc(CC(C)c2ccccc2)n2c1NC(=O)C2C(C)C (mixture of isomers)

[9.662, 15.087, 32.399, 32.843]

###

Target: mu opiate receptor (Rattus norvegicus, UniProt P33535)
Construct: from tissue; host or cells: rat brain membranes/homogenate
Sequence (P33535 whole entry): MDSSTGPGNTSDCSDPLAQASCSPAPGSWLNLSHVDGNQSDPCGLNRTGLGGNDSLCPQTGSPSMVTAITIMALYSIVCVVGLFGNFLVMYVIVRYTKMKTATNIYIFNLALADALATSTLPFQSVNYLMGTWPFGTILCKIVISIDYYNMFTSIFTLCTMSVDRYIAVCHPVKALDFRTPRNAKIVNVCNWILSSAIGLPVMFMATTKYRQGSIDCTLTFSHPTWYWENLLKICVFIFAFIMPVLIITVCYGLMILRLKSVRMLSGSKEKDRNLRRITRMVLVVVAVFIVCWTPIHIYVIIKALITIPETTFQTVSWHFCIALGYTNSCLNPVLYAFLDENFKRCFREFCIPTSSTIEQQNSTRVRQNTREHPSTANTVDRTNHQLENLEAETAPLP
Experiment: Inhibition of [3H]DAMGO binding to the mu opiate receptor in rat brain homogenates
Settings: [3H]DAMGO bound; 0.08 mg of compound per milliliter, 7 nM 3H-labeled DAMGO, rat brain membranes
Description: The previously prepared [3,5,7]-1H-imidazo[1,5-a]-imidazol-2(3H)-one library of individual compounds was screened for the ability to inhibit the binding of [^3H] [D-Ala^2,MePhe^4,Gly^5-ol]enkephalin (DAMGO) that is known to bind specifically to the mu opiate receptor present in rat brain homogenates following literature procedures. [Dooley et al., Science, 266:2019(1994); U.S. Pat. No. 5,763,193.] […]
Please assign n whenever % Bound is at or above 60%, and y whenever it is below.

>>> label_value("CCCCc1nc(C)n2c1NC(=O)C2C(C)C (racemic) [Pool 60]")
"n"

Is 60% strictly greater than the compound's reported % Bound? compound: CC(C)c1nc(Cc2cccc(F)c2)n2c1NC(=O)C2C(C)C (racemic) [Pool 71]
y

Is 60% strictly greater than the compound's reported % Bound? compound: CC(C)c1nc(C2(c3ccccc3)CC2)n2c1NC(=O)C2C(C)C (racemic) [Pool 67]
y

Is 60% strictly greater than the compound's reported % Bound? compound: CC(C)c1nc(C2CCCC2)n2c1NC(=O)C2C(C)C (stereo not drawn) [Pool 145]
n

Is 60% strictly greater than the compound's reported % Bound? compound: Cc1nc(Cc2ccccc2)c2n1C(C(C)C)C(=O)N2 (stereo not drawn) [Pool 47]
n

Is 60% strictly greater than the compound's reported % Bound? compound: COc1ccc(Cc2nc(C(C)C)c3n2C(C(C)C)C(=O)N3)cc1 (racemic) [Pool 78]
y

Is 60% strictly greater than the compound's reported % Bound? compound: CC(C)c1nc(C2CCCCC2)n2c1NC(=O)C2C(C)C (stereo not drawn) [Pool 137]
n

Is 60% strictly greater than the compound's reported % Bound? compound: CC(C)c1nc(CCCc2ccccc2)n2c1NC(=O)C2C(C)C (racemic) [Pool 113]
y
